- System: A549
- assay.notes: Antiproliferative against human A549 cells after 48 hrs by MTT assay
- Format: functional, cell-based
- measurement.conditions: A549, 48 h
As shown below, each of these compounds has a reported IC50 value.
endpoint.label: IC50 (µM)

item_smiles=COC(=O)c1cc2c(OC)cccc2[nH]1 test_system=A549 endpoint_label=IC50 censoring_operator=> readout_value=200
item_smiles=COC(=O)c1cc2c(OCC3CCCCC3)cccc2[nH]1 test_system=A549 endpoint_label=IC50 censoring_operator== readout_value=31.1
item_smiles=COC(=O)c1cc2c(OCC(C)C)cc(NC(C)=O)cc2[nH]1 test_system=A549 endpoint_label=IC50 censoring_operator=> readout_value=200
item_smiles=COC(=O)c1cc2c(OC(C)C)cc(OC)cc2[nH]1 test_system=A549 endpoint_label=IC50 censoring_operator== readout_value=24.1
item_smiles=CCCCOc1cc(OC)cc2[nH]c(C(=O)OC)cc12 test_system=A549 endpoint_label=IC50 censoring_operator== readout_value=40.4
item_smiles=CCCOc1cc(OC)cc2[nH]c(C(=O)OC)cc12 test_system=A549 endpoint_label=IC50 censoring_operator== readout_value=25.4

* * *

- Test system: A549
- assay.notes: Antiproliferative against human A549 cells after 48 hrs by MTT assay
- Type: functional, cell-based
- measurement.conditions: A549, 48 h
pIC50: −log10 of the molar value.
endpoint.label: pIC50

compound=CCOc1ccc2[nH]c(C(=O)OC)cc2c1OCC1CCCCC1 endpoint_label=pIC50 censoring_operator== readout_value=4.19
compound="CC(=O)O[C@H]1C(=O)[C@@]2(C)[C@H]([C@H](OC(=O)c3ccccc3)[C@]3(O)C[C@H](OC(=O)[C@H](O)[C@@H](NC(=O)c4ccccc4)c4ccccc4)C(C)=C1C3(C)C)[C@]1(OC(C)=O)CO[C@@H]1C[C@@H]2O [PACLITAXEL]" endpoint_label=pIC50 censoring_operator== readout_value=5.82
compound=COC(=O)c1cc2c(OCC3CCCCC3)cc(N)cc2[nH]1 endpoint_label=pIC50 censoring_operator== readout_value=5.40
compound=CCCCOc1c(OCC)ccc2[nH]c(C(=O)OC)cc12 endpoint_label=pIC50 censoring_operator== readout_value=3.99
compound=C=CCOc1cc(N)cc2[nH]c(C(=O)OC)cc12 endpoint_label=pIC50 censoring_operator=< readout_value=3.70
compound=COC(=O)c1cc2c(OCC(C)C)cccc2[nH]1 endpoint_label=pIC50 censoring_operator== readout_value=4.29
compound=CCCOc1c(OCC)ccc2[nH]c(C(=O)OC)cc12 endpoint_label=pIC50 censoring_operator=< readout_value=3.70
compound=COC(=O)c1cc2ccc(N(C)C)cc2[nH]1 endpoint_label=pIC50 censoring_operator=< readout_value=3.70
compound=COC(=O)c1cc2c(OC(C)C)cccc2[nH]1 endpoint_label=pIC50 censoring_operator=< readout_value=3.70
compound=COC(=O)c1cc2c(OCc3ccc(F)cc3)cc(N)cc2[nH]1 endpoint_label=pIC50 censoring_operator=< readout_value=3.70

Data credit: ChEMBL document CHEMBL3286297
